Where do these numbers come from? They come from the supplement of paper PMC10515830.

difference in activity during first hour values by entry
System: Danio rerio larvae (5 dpf)
Assay: difference in activity during first hour vs DMSO (percentage points); higher = more activity than DMSO
Conditions: 10 µM; exposure time 6 h
Where a name gives a salt, the structure may show the parent alone.

# annotated cases, reported difference in activity during first hour shown
# compound, target_system, value_observed
rows = [
    ("C[C@@H]1NC(=O)[C@@H](N)CNC(=O)[C@H](C2CCNC(=N)N2)NC(=O)/C(=C/NC(N)=O)NC(=O)[C@H](CNC(=O)CC(N)CCCN)NC1=O.N=C1NCC[C@H]([C@@H]2NC(=O)/C(=C/NC(N)=O)NC(=O)[C@H](CNC(=O)C[C@@H](N)CCCN)NC(=O)[C@H](CO)NC(=O)[C@@H](N)CNC2=O)N1 [Capreomycin (sulfate)]", "Danio rerio larvae (5 dpf)", -0.814),
    ("CC(C(=O)O)c1cccc(Oc2ccccc2)c1 (stereo unspecified) [Fenoprofen (calcium salt hydrate)]", "Danio rerio larvae (5 dpf)", -0.54),
    ("CO/N=C(\\C(=O)N[C@@H]1C(=O)N2C(C(=O)[O-])=C(C[N+]3(C)CCCC3)CS[C@H]12)c1csc(N)n1 [Cefepime (hydrochloride hydrate)]", "Danio rerio larvae (5 dpf)", 1.35),
    ("COc1cc(Nc2c(C#N)cnc3cc(OCCCN4CCN(C)CC4)c(OC)cc23)c(Cl)cc1Cl", "Danio rerio larvae (5 dpf)", -11.7),
]

Quick one: difference in activity during first hour for N[C@@H](CC(=O)N1CCn2c(nnc2C(F)(F)F)C1)Cc1cc(F)c(F)cc1F [(-)-Sitagliptin (phosphate)] ?
-10.7

Quick one: difference in activity during first hour for CN(C)CCCN1c2ccccc2Sc2ccc(Cl)cc21 [Chlorpromazine (hydrochloride)] ?
13.4

###

Tested on: Danio rerio larvae (5 dpf)
Test: difference in habituation to acoustic stimuli vs DMSO (percentage points); higher = more habituation than DMSO
Conditions: 10 µM; exposure time 6 h
Counter-ions that a name gives are not always drawn.
Use 1 as the dividing line for difference in habituation to acoustic stimuli, with the line itself on the y side and lower values as n.

# compound, target_system, class_name
rows = [
    ("Cc1ccccc1N1C(=O)c2cc(S(N)(=O)=O)c(Cl)cc2NC1C (stereo unspecified)", "Danio rerio larvae (5 dpf)", "n"),
    ("CCCCCCOC(=O)NC(=N)c1ccc(NCc2nc3cc(C(=O)N(CCC(=O)OCC)c4ccccn4)ccc3n2C)cc1 [Dabigatran etexilate]", "Danio rerio larvae (5 dpf)", "n"),
    ("N#Cc1cc(NC(=O)C(=O)O)c(Cl)c(NC(=O)C(=O)O)c1 [Lodoxamide]", "Danio rerio larvae (5 dpf)", "y"),
    ("C[N+](C)(C)C[C@H](O)CC(=O)[O-]", "Danio rerio larvae (5 dpf)", "y"),
    ("CCCN(CCC)S(=O)(=O)c1ccc(C(=O)O)cc1", "Danio rerio larvae (5 dpf)", "y"),
    ("CCN(CC)CCOC(=O)C1(C2CCCCC2)CCCCC1 [Dicyclomine (hydrochloride)]", "Danio rerio larvae (5 dpf)", "n"),
    ("CN(C)C(=O)C(CCN1CCC(O)(c2ccc(Cl)cc2)CC1)(c1ccccc1)c1ccccc1 [Loperamide (hydrochloride)]", "Danio rerio larvae (5 dpf)", "n"),
    ("COC(=O)C1=C(C)NC(C)=C(C(=O)OC)C1c1ccccc1[N+](=O)[O-]", "Danio rerio larvae (5 dpf)", "n"),
    ("CC(=O)OCC(CCn1cnc2cnc(N)nc21)COC(C)=O", "Danio rerio larvae (5 dpf)", "n"),
    ("CN1CCC(=C2c3ccccc3C=Cc3ccccc32)CC1 [Cyproheptadine (hydrochloride hydrate)]", "Danio rerio larvae (5 dpf)", "n"),
]

I'd appreciate it if you could say whether CNC(=C[N+](=O)[O-])NCCSCc1ccc(CN(C)C)o1 [Ranitidine (hydrochloride)] has difference in habituation to acoustic stimuli at least equal to 1.
n

I'd appreciate it if you could say whether CCCCC[C@H](O)CC[C@@H]1[C@H]2Cc3cccc(OCC(=O)O)c3C[C@H]2C[C@H]1O has difference in habituation to acoustic stimuli at least equal to 1.
n

I'd appreciate it if you could say whether CC[C@@H]1C(=O)OC[C@@H]1Cc1cncn1C [(+)-Pilocarpine (hydrochloride)] has difference in habituation to acoustic stimuli at least equal to 1.
y

I'd appreciate it if you could say whether CC(=O)Oc1ccccc1C(=O)Nc1ncc([N+](=O)[O-])s1 [Nitazoxanide] has difference in habituation to acoustic stimuli at least equal to 1.
n

I'd appreciate it if you could say whether CCNC(=O)[C@@H]1CCCN1C(=O)[C@H](CCCNC(=N)N)NC(=O)[C@H](CC(C)C)NC(=O)[C@@H](CC(C)C)NC(=O)[C@H](Cc1ccc(O)cc1)NC(=O)[C@H](CO)NC(=O)[C@H](Cc1c[nH]c2ccccc12)NC(=O)[C@H](Cc1c[nH]cn1)NC(=O)[C@@H]1CCC(=O)N1 [Leuprorelin (acetate)] has difference in habituation to acoustic stimuli at least equal to 1.
y

I'd appreciate it if you could say whether CCC1(C)CC(=O)NC1=O (stereo unspecified) [Ethosuximide] has difference in habituation to acoustic stimuli at least equal to 1.
y
